Cited source: ChEMBL document CHEMBL4715854

assay: Metabolic stability in rat liver S9 fraction at 1 uM assessed as parent compound remaining incubated for 60 mins by HPLC/MS analysis; format: ADME, subcellular; details: read-out: Stabilty
propertyName: remaining at 1 h, 1 µM
A bare number is not enough; add the unit after it.

-- ask So what does the record say about remaining at 1 h, 1 µM for "N#Cc1ccc(NC(=O)N2CCCc3ccc(C=O)nc32)nc1" ?
-- reply 61%

###

assay: AUC (0 to 12 hrs) in C57BL/6 mouse at 30 mg/kg, po BID treated for 6 days measured by LC-MS/MS analysis; type: ADME, organism-based; set-up: route oral, dose 30 mg/kg, time 6 day; conditions: in vivo
propertyName: AUC at 144 h
A bare number is not enough; add the unit after it.

-- ask So what does the record say about AUC at 144 h for "CC(C)Oc1cc(NC(=O)N2CCCc3cc(CN4CCCC4=O)c(C=O)nc32)ncc1C#N" ?
-- reply 8250 ng·h/mL
